- PROCEDURE_DETAILS: UV absorption (λmax, molar extinction ε, extinction value E 1%, 1 cm) of the triazine UV filters
- Format: physicochemical
- CONDITIONS: at λmax 320 nm; solvent not stated
ASSAY_READOUT: ε
Param answer (str): number followed by unit.

input: So what does the record say about ε for CC1(C)CC(=O)C(=CNc2nc(NC=C3C(=O)CC(C)(C)CC3=O)nc(-c3ccccc3)n2)C(=O)C1 [Example 1] ?
output: 51000 L/mol/cm

###

- PROCEDURE_DETAILS: UV absorption (λmax, molar extinction ε, extinction value E 1%, 1 cm) of the triazine UV filters
- Type: physicochemical
- CONDITIONS: second band at 224 nm; solvent not stated
ASSAY_READOUT: ε (L/mol/cm)
Only the number, expressed in L/mol/cm, is required.

input: Need ε, item "CC1(C)CC(=O)C(=CNc2nc(NC=C3C(=O)CC(C)(C)CC3=O)nc(-c3ccccc3)n2)C(=O)C1"
output: 35700
